biological target: HLA-A*68:02; experiment: IEDB peptide-MHC binding, purified MHC/competitive/radioactivity; filed as Kd, often an IC50 or EC50 that approximates it; bounds were set here for any values at or beyond the usual limits of such assays; conditions: source organism: Dengue virus 4 Philippines/H241/1956
endpoint name: Kd (nM)
Report as a plain number; the unit nM is understood.

The sequence listed as `NIHTAITQV` has a reported Kd of 152

###

biological target: HLA-A*26:01; test: IEDB peptide-MHC binding, purified MHC/direct/fluorescence; filed as Kd, often an IC50 or EC50 that approximates it; bounds were set here for any values at or beyond the usual limits of such assays; conditions: source organism: Ectopseudomonas mendocina
endpoint name: Kd

Item: `FSDARLAKL` | System: HLA-A*26:01 | Kd: ≥ 20 µM

###

molecular target: HLA-B*39:01; test: IEDB peptide-MHC binding, purified MHC/competitive/fluorescence; filed as Kd, often an IC50 or EC50 that approximates it; bounds were set here for any values at or beyond the usual limits of such assays; conditions: source organism: Hantavirus HPR/02-73
endpoint name: Kd

Noted Kd for `GFAIPIILK` , tested on HLA-B*39:01: ≥ 20 µM

###

Answer each item with its documented Kd.
target: HLA-B*18:01; assay: IEDB peptide-MHC binding, purified MHC/competitive/radioactivity; filed as Kd, often an IC50 or EC50 that approximates it; bounds were set here for any values at or beyond the usual limits of such assays; conditions: source organism: SARS coronavirus Tor2
Give just the number in µM; leave the unit off.

For `EEAARCMRSL` the sequence record lists Kd as 6.89

# Kd (sequence: `SEFDRDAAM` ) is 2.51

According to the records, this sequence `DEWSVATFYL` displays Kd of 0.0771

# Kd of `IEYSDFATSA` = 0.135

// recorded Kd for `YEAMYTPHT` : 2.8

// field: Kd; key: `EEILGTVSW` ; value = 0.0783

Entry `HEFVDEFYA` ; Kd = 3.01

###

For each record, write down the corresponding Kd.
biological target: HLA-B*07:02; assay: IEDB peptide-MHC binding, purified MHC/competitive/radioactivity; filed as Kd, often an IC50 or EC50 that approximates it; bounds were set here for any values at or beyond the usual limits of such assays; settings: source organism: Triticum aestivum

Briefly, Kd measured for `YPQPQLPY` : ≥ 22.6 µM

Query `QPSSQVSF` yields Kd of ≥ 26.2 µM

###

biological target: HLA-A*68:02; assay: IEDB peptide-MHC binding, purified MHC/competitive/radioactivity; filed as Kd, often an IC50 or EC50 that approximates it; bounds were set here for any values at or beyond the usual limits of such assays; conditions: source organism: Dengue virus 1 Brazil/97-11/1997
endpoint name: pKd
Bear in mind: pKd is minus log10 of a mol/L concentration; give just that figure.

GET /value?item= `MLMTGTLAV` &field=pKd returns 8.01

###

molecular target: HLA-A*26:01; assay: IEDB peptide-MHC binding, purified MHC/competitive/fluorescence; filed as Kd, often an IC50 or EC50 that approximates it; bounds were set here for any values at or beyond the usual limits of such assays; details: source organism: Human immunodeficiency virus 1
endpoint name: Kd

Recorded Kd (sequence `IATLYCVHQR` ): ≥ 20 µM

###

What Kd was measured for each of the following?
target: HLA-A*02:01; assay: IEDB peptide-MHC binding, purified MHC/direct/fluorescence; filed as Kd, often an IC50 or EC50 that approximates it; bounds were set here for any values at or beyond the usual limits of such assays; conditions: source organism: Bacillus anthracis

Reported Kd for `EQDGITYYL` was ≥ 20 µM

Briefly, Kd measured for `VTECKLIYY` : ≥ 20 µM

###

biological target: HLA-A*69:01; experiment: IEDB peptide-MHC binding, purified MHC/direct/fluorescence; filed as Kd, often an IC50 or EC50 that approximates it; bounds were set here for any values at or beyond the usual limits of such assays; conditions: source organism: Salmonella enterica subsp. enterica serovar Typhimurium
endpoint name: Kd (nM)
# value in nM; strip the unit string

Form: sequence = `LLQGVPFHV` ; Kd = 289

###

molecular target: HLA-B*08:01; experiment: IEDB peptide-MHC binding, purified MHC/competitive/fluorescence; bounds were set here for any values at or beyond the usual limits of such assays; conditions: source organism: Sudan ebolavirus
endpoint name: IC50 (µM)
Unit µM implied. Number only.

Entry `FLYDRLAST` — recorded IC50 = 40.6

###

target: HLA-A*31:01; assay: IEDB peptide-MHC binding, purified MHC/competitive/fluorescence; filed as Kd, often an IC50 or EC50 that approximates it; bounds were set here for any values at or beyond the usual limits of such assays; conditions: source organism: Mopeia Lassa virus reassortant 29
endpoint name: Kd (nM)
Give the number; nM is assumed, so skip it.

Entry `RLKFSLSYK` , tested on HLA-A*31:01, has a reported Kd of 7.17

###

target: HLA-A*02:01; assay: IEDB peptide-MHC binding, purified MHC/competitive/radioactivity; filed as Kd, often an IC50 or EC50 that approximates it; bounds were set here for any values at or beyond the usual limits of such assays; settings: source organism: Hepatitis C virus (isolate BK)
endpoint name: Kd (nM)
Answer with a number only, understood to be in nM.

The sequence identified as `CVNGVCWTV` registered its Kd at 1020

###

molecular target: HLA-A*30:02; test: IEDB peptide-MHC binding, purified MHC/competitive/radioactivity; filed as Kd, often an IC50 or EC50 that approximates it; bounds were set here for any values at or beyond the usual limits of such assays; conditions: source organism: Dengue virus 4 Philippines/H241/1956
endpoint name: Kd (nM)
Answer format: numeric, nM implied, no suffix.

Record `AGPFSQHNY` . Reported Kd: 472

###

Please respond with reported pKd for every item in the list.
target: HLA-A*29:02; test: IEDB peptide-MHC binding, purified MHC/competitive/radioactivity; filed as Kd, often an IC50 or EC50 that approximates it; bounds were set here for any values at or beyond the usual limits of such assays; conditions: source organism: Mammarenavirus guanaritoense
Lab note — pKd values are minus log10 of concentrations in M.

Field pKd (system: HLA-A*29:02) for entry `IMRNLTNLL` = 6.52

Given the sequence `LFDVIPVSY` and test system HLA-A*29:02, the measured pKd is 7.17

The sequence `SAIFFTTSLF` on HLA-A*29:02: pKd was 7.06

###

biological target: HLA-B*15:17; assay: IEDB peptide-MHC binding, purified MHC/competitive/fluorescence; filed as Kd, often an IC50 or EC50 that approximates it; bounds were set here for any values at or beyond the usual limits of such assays; conditions: source organism: Variola virus
endpoint name: pKd
Entry type: numeric. Quantity: pKd, the -log10 of concentration in molar units.

The value of pKd measured for the sequence `ETIEILRNY` turned out to be 7.06

###

target: HLA-A*02:01; assay: IEDB peptide-MHC binding, purified MHC/direct/fluorescence; filed as Kd, often an IC50 or EC50 that approximates it; bounds were set here for any values at or beyond the usual limits of such assays; conditions: source organism: Mycobacterium avium 104
pKd: −log10 of the molar value.
endpoint name: pKd

`EHVQGDIDL` has a reported pKd of ≤ 4.70

###

molecular target: HLA-A*26:03; test: IEDB peptide-MHC binding, purified MHC/direct/fluorescence; filed as Kd, often an IC50 or EC50 that approximates it; bounds were set here for any values at or beyond the usual limits of such assays; conditions: source organism: Vibrio parahaemolyticus RIMD 2210633
endpoint name: pKd
Please keep in mind that pKd is minus log10 of the molar concentration; only the number is needed.

Per the records, this sequence ( `DTWHGFKNM` ) has pKd equal to 7.96

###

molecular target: HLA-B*83:01; experiment: IEDB peptide-MHC binding, purified MHC/competitive/fluorescence; filed as Kd, often an IC50 or EC50 that approximates it; bounds were set here for any values at or beyond the usual limits of such assays; conditions: source organism: Orthohantavirus tulaense
endpoint name: Kd

// recorded Kd for `ILMARYMSK` : ≥ 5 µM

###

molecular target: HLA-B*51:01; experiment: IEDB peptide-MHC binding, purified MHC/competitive/radioactivity; filed as Kd, often an IC50 or EC50 that approximates it; bounds were set here for any values at or beyond the usual limits of such assays; conditions: source organism: SARS coronavirus Tor2
endpoint name: Kd (µM)
Value expressed in µM; do not type the unit.

Lookup result for `SPLFLIVAA` ; measured Kd: 12.1

###

target: HLA-A*01:01; assay: IEDB peptide-MHC binding, purified MHC/direct/fluorescence; filed as Kd, often an IC50 or EC50 that approximates it; bounds were set here for any values at or beyond the usual limits of such assays; conditions: source organism: Influenza A virus (A/G.H/HK/793.1/02 (H5N1))
endpoint name: Kd

Quick note, Kd for `RRKTNLYGF` landed at ≥ 20 µM
